# subject of test: Autotaxin (Homo sapiens) (UniProt Q13822)
# method: Activity of human autotaxin in human […] cells assessed as effect on enzyme-mediated of FS3 hydrolysis at 0.1 uM
# Type: cell-based
# Parameters: scale not given: the % may be the effect or the level left
property: Activity (%)

| mol smiles | Activity, % |
| --- | --- |
| CCCCCCCCCCCCCCCCCCOC[C@H](O)COP(=O)([O-])CCC[N+](C)(C)C | 78 |
| CCCCCCCCC/C=C/CCCCCCCC(=O)OC[C@@H](O)COP(=O)(O)O | 90 |
| CCCCCCCC/C=C\CCCCCCCCOP(=O)(O)OCC[N+](C)(C)C | 101 |
| CCCCCCCCCCCCCCCCOC[C@H](O)COP(=O)([O-])CCC[N+](C)(C)C | 82 |
| CCCCCCCCCCOC[C@H](O)COP(=O)([O-])CCC[N+](C)(C)C | 97 |
| CCCCCCCCCCCCCCCCOP(=O)([O-])CCC[N+](C)(C)C | 97 |
| CCCCCCCCCCCCCCCCCCOP(=O)([O-])OCC[N+](C)(C)C | 114 |
| CCCCCCCC/C=C\CCCCCCCCOP(=O)([O-])OCC[N+](C)(C)C | 105 |
| CCCCCCCCC(=O)OC[C@@H](O)COP(=O)([O-])OCC[N+](C)(C)C | 94 |
